System: Viola tricolor
Assay: Post-emergence herbicidal action
Assay type: in vivo
Settings: 1280 g/ha, rated visually after about 3 weeks vs untreated controls
# reported herbicidal activity on Viola tricolor; entries follow
A number alone suffices; assume %.

| molecule | quantity unit | experimental result |
| --- | --- | --- |
| COc1cnc(Oc2nn(C)c(C)c2Sc2ccc(F)cc2F)nc1 | % | 90 |

Problem: // query herbicidal activity on Viola tricolor value for entry CCc1c(Sc2ccccc2)c(Oc2ncccn2)nn1C
Solution: 100

Problem: Entry to check: Cc1c(Sc2cccc(F)c2)c(Oc2ncccn2)nn1C
Solution: 100

Problem: Also, CCc1c(Sc2ccc(F)cc2F)c(Oc2ncc(OC)cn2)nn1C please.
Solution: 80

Problem: Next molecule: COc1cnc(Oc2nn(C)c(C)c2Sc2ccc(F)cc2Cl)nc1
Solution: 100

====

Listing of recorded herbicidal activity on Amaranthus retroflexus by entry.
Test system: Amaranthus retroflexus
Test: Post-emergence herbicidal action
Assay type: in vivo
Conditions: 1280 g/ha, rated visually after about 3 weeks vs untreated controls
Answer format: numeric, % implied, no suffix.

Sample records with herbicidal activity on Amaranthus retroflexus:
| molecule | experimental result |
| --- | --- |
| Cc1c(Sc2ccccc2)c(Oc2ncccn2)nn1C | 100 |
| Cc1c(Sc2ccc(F)c(F)c2)c(Oc2ncc(F)cn2)nn1C | 100 |
| Cc1c(Sc2ccc(F)c(F)c2)c(Oc2ncccn2)nn1C | 100 |
| CC(C)n1cc(Sc2ccc(F)cc2)c(Oc2ncc(Cl)cn2)n1 | 80 |

We next turn to a different compound, shown below.
Problem: Form field - read-out: herbicidal activity on Amaranthus retroflexus; system: Amaranthus retroflexus; submitted item: Cc1c(Sc2cccc(Cl)c2)c(Oc2ncccn2)nn1C
Solution: 100

====

System: Echinochloa crus-galli
Assay: Pre-emergence herbicidal action
Assay type: in vivo
Settings: 1280 g/ha, scored visually after about 3 weeks vs untreated controls
// reported herbicidal activity on Echinochloa crus-galli for each item listed
Quick note: give the figure in %, leave out the unit.

| molecule | target of assay | experimental result |
| --- | --- | --- |
| CCc1c(Sc2ccccc2)c(Oc2ncccn2)nn1C | Echinochloa crus-galli | 100 |
| COc1cnc(Oc2nn(C)c(C)c2Sc2ccccc2)nc1 | Echinochloa crus-galli | 100 |

Problem: Any idea what its herbicidal activity on Echinochloa crus-galli is? The compound is CCc1c(Sc2ccc(F)cc2F)c(Oc2ncc(F)cn2)nn1C
Solution: 100

====

System: Echinochloa crus-galli
Assay: Pre-emergence herbicidal action
Format: in vivo
Settings: 1280 g/ha, scored visually after about 3 weeks vs untreated controls
outcome measure: herbicidal activity on Echinochloa crus-galli (%)
Unit % implied. Number only.

Guide cases for herbicidal activity on Echinochloa crus-galli, answers given:
| molecule | target of assay | quantity unit | experimental result |
| --- | --- | --- | --- |
| Cc1c(Sc2ccccc2)c(Oc2ncccn2)nn1C | Echinochloa crus-galli | % | 100 |
| Cc1c(Sc2ccc(F)cc2)c(Oc2ncc(Cl)cn2)nn1C | Echinochloa crus-galli | % | 80 |
| CCc1c(Sc2ccc(F)cc2)c(Oc2ncccn2)nn1C | Echinochloa crus-galli | % | 90 |
| Cc1c(Sc2ccc(F)c(F)c2)c(Oc2cnccn2)nn1C | Echinochloa crus-galli | % | 100 |
| Cn1cc(Sc2ccc(F)cc2)c(Oc2ncc(Cl)cn2)n1 | Echinochloa crus-galli | % | 100 |
| CCc1c(Sc2ccc(F)c(F)c2)c(Oc2ncc(F)cn2)nn1C | Echinochloa crus-galli | % | 100 |

Problem: Given the entry Cc1c(Sc2ccc(F)cc2F)c(Oc2ncc(F)cn2)nn1C , what herbicidal activity on Echinochloa crus-galli was observed with Echinochloa crus-galli?
Solution: 100

Problem: Entry to check: CCc1c(Sc2ccc(F)c(F)c2)c(Oc2ncccn2)nn1C
Solution: 100

Problem: What do you get for Cc1c(Sc2cccc(F)c2)c(Oc2ncccn2)nn1C ?
Solution: 100

Problem: Next record, please: Cn1cc(Sc2ccc(Cl)cc2)c(Oc2ncc(Cl)cn2)n1
Solution: 80

====

Test system: Viola tricolor
Assay: Pre-emergence herbicidal action
Type: in vivo
Details: 1280 g/ha, scored visually after about 3 weeks vs untreated controls
From the text: Pre-Emergence Herbicidal Action and Crop Plant Compatibility Seeds of monocotyledonous and dicotyledonous weed plants and crop plants were placed in plastic or wood fiber pots and covered with soil. […] After about 3 weeks, the effect of the preparations was scored visually in comparison with untreated controls as percentages. […]
outcome measure: herbicidal activity on Viola tricolor (%)
Quick note: give the figure in %, leave out the unit.

Example cases with answers are listed next.
| molecule | herbicidal activity on Viola tricolor [%] |
| --- | --- |
| CCn1cc(Sc2ccc(F)cc2)c(Oc2ncc(Cl)cn2)n1 | 100 |
| Cn1cc(Sc2ccccc2)c(Oc2ncc(Cl)cn2)n1 | 100 |
| CCn1cc(Sc2ccccc2)c(Oc2ncccn2)n1 | 90 |
| CCc1c(Sc2ccc(F)cc2F)c(Oc2ncccn2)nn1C | 100 |
| CCc1c(Sc2ccc(F)cc2F)c(Oc2ncc(F)cn2)nn1C | 100 |
| CCc1c(Sc2cccc(F)c2)c(Oc2ncc(F)cn2)nn1C | 90 |
| Cc1c(Sc2cccc(F)c2)c(Oc2ncccn2)nn1C | 90 |
| COc1cnc(Oc2nn(C)c(C)c2Sc2ccccc2)nc1 | 100 |
| COc1cnc(Oc2nn(C)c(C)c2Sc2cccc(Cl)c2)nc1 | 100 |
| CCc1c(Sc2ccc(F)cc2F)c(Oc2ncc(OC)cn2)nn1C | 100 |

Problem: I'm curious: which herbicidal activity on Viola tricolor was measured for Fc1ccc(Sc2c(Oc3ncccn3)nn3c2CCC3)cc1 tested on Viola tricolor?
Solution: 100

====

Test system: Amaranthus retroflexus
Experiment: Post-emergence herbicidal action
Assay type: in vivo
Settings: 1280 g/ha, rated visually after about 3 weeks vs untreated controls
outcome measure: herbicidal activity on Amaranthus retroflexus (%)
Give the number; % is assumed, so skip it.

# annotated cases, reported herbicidal activity on Amaranthus retroflexus shown
| molecule | experimental result |
| --- | --- |
| COc1cnc(Oc2nn(C)c(C)c2Sc2ccccc2)nc1 | 100 |
| Cc1c(Sc2cccc(F)c2)c(Oc2ncc(F)cn2)nn1C | 100 |

Problem: Name the recorded herbicidal activity on Amaranthus retroflexus for CCc1c(Sc2cccc(F)c2)c(Oc2ncc(F)cn2)nn1C .
Solution: 100

Problem: What do you get for CCc1c(Sc2ccc(F)cc2)c(Oc2ncccn2)nn1C ?
Solution: 100

Problem: Moving on to CCc1c(Sc2ccc(F)c(F)c2)c(Oc2ncc(F)cn2)nn1C
Solution: 100

====

Test system: Echinochloa crus-galli
Assay: Pre-emergence herbicidal action
Type: in vivo
Conditions: 1280 g/ha, scored visually after about 3 weeks vs untreated controls
herbicidal activity on Echinochloa crus-galli for assorted molecules
Express the result in % but write the number alone.

| molecule | target of assay | quantity unit | experimental result |
| --- | --- | --- | --- |
| Cc1ccnc(Oc2nn(C)c(C)c2Sc2cccc(Cl)c2)n1 | Echinochloa crus-galli | % | 80 |
| CCc1c(Sc2cccc(F)c2)c(Oc2ncc(F)cn2)nn1C | Echinochloa crus-galli | % | 80 |
| Fc1ccc(Sc2c(Oc3ncccn3)nn3c2CCC3)cc1 | Echinochloa crus-galli | % | 100 |
| Fc1cnc(Oc2nn3c(c2Sc2ccc(F)cc2F)CCOCC3)nc1 | Echinochloa crus-galli | % | 100 |
| Cc1c(Sc2ccccc2)c(Oc2ncc(F)cn2)nn1C | Echinochloa crus-galli | % | 100 |
| Cc1c(Sc2cccc(Cl)c2)c(Oc2ncc(F)cn2)nn1C | Echinochloa crus-galli | % | 100 |
| Cc1c(Sc2ccc(F)cc2F)c(Oc2ncccn2)nn1C | Echinochloa crus-galli | % | 100 |
| Cn1cc(Sc2ccccc2)c(Oc2ncccn2)n1 | Echinochloa crus-galli | % | 90 |
| Cc1c(Sc2ccc(F)c(F)c2)c(Oc2ncccn2)nn1C | Echinochloa crus-galli | % | 100 |
| CCc1c(Sc2ccc(F)cc2)c(Oc2ncc(F)cn2)nn1C | Echinochloa crus-galli | % | 100 |

Problem: Given the molecule COc1cnc(Oc2nn(C)c(C)c2Sc2ccc(F)cc2F)nc1 , what is its reported herbicidal activity on Echinochloa crus-galli?
Solution: 100

Problem: For COc1cnc(Oc2nn(C)c(C)c2Sc2cccc(Cl)c2)nc1 then?
Solution: 90

Problem: Entry to check: Cc1c(Sc2cccc(Cl)c2)c(Oc2ncccn2)nn1C
Solution: 100

Problem: Would you mind doing Cc1c(Sc2cccc(F)c2)c(Oc2ncc(F)cn2)nn1C as well?
Solution: 100

Problem: Try this molecule next: COc1cnc(Oc2nn(C)c(C)c2Sc2ccc(F)c(F)c2)nc1
Solution: 100

Problem: Now try Fc1ccc(Sc2c(Oc3ncccn3)nn3c2CCOCC3)c(F)c1 .
Solution: 100

Problem: // query: Cc1c(Sc2ccc(F)cc2Cl)c(Oc2ncccn2)nn1C
Solution: 100

Problem: What do we get for Fc1ccc(Sc2c(Oc3ncc(F)cn3)nn3c2CCOCC3)cc1 ?
Solution: 100

Problem: Another molecule to check: CCc1c(Sc2ccccc2)c(Oc2ncc(F)cn2)nn1C
Solution: 90

Taken from patent US20200181117A1.
